Source listed as patent US20110028686A1.

- target.or.test.system: T1, CBP KIX, wild type (Example 20) (UniProt P45481 586-665, limits assumed)
- T1 construct: domain: KIX; also called wild type CBP KIX; CBP MX
- T1 sequence (P45481 586-665 limits assumed): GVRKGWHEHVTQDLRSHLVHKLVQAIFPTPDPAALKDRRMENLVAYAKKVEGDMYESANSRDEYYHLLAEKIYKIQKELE
- procedure.text: FP, fluorescein-labelled PPKID4^P titrated with CBP KIX
Square brackets hold non-standard residues; d marks the D form. Ends that are not written are not given here. pS = N[C@@H](COP(=O)(O)O)C(=O)O
measured.parameter: Kd (nM)

>>> reported_result("GPSQPTYPGDDAPVRRL[pS]FFYILLDLYLDAPGVC(acetamidofluorescein)-NH2 (designed binder, also called PPKID4 (phosphorylated)) [PPKID4^P]")
610
